- test method notes: Reducing activity of the stable radical DPPH
- Format: biochemical
- study conditions: 100 µM, 60 min
Category key, based on recorded RA% 100 µM 60 min: low (below 40%), moderate (40% to below 50%), high (50% or more)

molecule: CC(Cc1ccc(O)c(O)c1)C(C)Cc1ccc(O)c(O)c1 (stereo not drawn) [NDGA, nordihydroguaretic acid, reference compound]
class name: high
--
molecule: O=C(O)C(=Cc1cccc(Oc2ccccc2)c1)c1ccc(Br)cc1
class name: moderate
--
molecule: CC(C)(C)c1cc(C=C(C(=O)O)c2ccc(O)cc2)cc(C(C)(C)C)c1O
class name: low
--
molecule: CN(C)c1ccc(C=CC=C(C(=O)O)c2ccc(O)cc2)cc1
class name: moderate
--
molecule: O=C(O)C(=Cc1ccc(OCc2ccc(Br)cc2)cc1)c1ccc(O)cc1
class name: high
--
molecule: CC(C)(C)c1cc(C=C(C(=O)O)c2ccc(Br)cc2)cc(C(C)(C)C)c1O
class name: low
--
molecule: O=C(O)C(=CC(Br)=Cc1ccccc1)c1ccc(O)cc1
class name: low
--
molecule: CC(=Cc1ccccc1)C=C(C(=O)O)c1ccc(Br)cc1
class name: low

Hey, which category is "O=C(O)C(=Cc1cccc(Oc2ccccc2)c1)c1ccc(O)cc1" in, do you know?
moderate

Hey, which category is "CC(C)(C)c1cc(C=C(C(=O)O)c2ccc(O)cc2)c(O)c(C(C)(C)C)c1" in, do you know?
low

Hey, which category is "O=C(O)C(=CC(Br)=Cc1ccccc1)c1ccc(Br)cc1" in, do you know?
low

* * *

Field: O2−•% 100 µM. Provide a value for each of the compounds that follow.
- test method notes: Non enzymatic assay of superoxide radical scavenging activity (PMS/NADH/NBT)
- Format: biochemical
One number for each entry, in %.

# example entries with known answers
compound: O=C(O)C(=Cc1cccc(Oc2ccccc2)c1)c1ccc(O)cc1 [Compound 1ii]
u: %
O2−•% 100 µM: 8

compound: O=C(O)C(=CC(Br)=Cc1ccccc1)c1ccc(O)cc1 [Compound 4ii]
u: %
O2−•% 100 µM: 100

compound: O=C(O)C(=CC(Br)=Cc1ccccc1)c1ccc(Br)cc1 [Compound 4i]
u: %
O2−•% 100 µM: 46

Report O2−•% 100 µM for each item below.
1. CN(C)c1ccc(C=CC=C(C(=O)O)c2ccc(O)cc2)cc1 [Compound 3ii]
2. CC(C)(C)c1cc(C=C(C(=O)O)c2ccc(Br)cc2)cc(C(C)(C)C)c1O [Compound 7i]
3. O=C(O)C(=Cc1cccc(Oc2ccccc2)c1)c1ccc(Br)cc1 [Compound 1i]
4. CC(C)(C)c1cc(C=C(C(=O)O)c2ccc(O)cc2)cc(C(C)(C)C)c1O [Compound 7ii]
5. CC(=Cc1ccccc1)C=C(C(=O)O)c1ccc(O)cc1 [Compound 5ii]
6. O=C(O)/C=C/c1ccc(O)c(O)c1 [CA, Caffeic acid, reference compound]

[85, 54, 54, 69, 8, 23]

* * *

Field: melting point. Provide a value for each of the molecules that follow.

# example entries with known answers
molecule: O=C(O)C(=CC(Br)=Cc1ccccc1)c1ccc(Br)cc1 [Compound 4i]
result: 211 to 212 °C
--
molecule: O=C(O)C(=Cc1cccc(Oc2ccccc2)c1)c1ccc(Br)cc1 [Compound 1i]
result: 152 to 153 °C

Kindly review the next molecule as well.
Look up melting point: CN(C)c1ccc(C=CC=C(C(=O)O)c2ccc(Br)cc2)cc1 [Compound 3i]
120 to 121 °C

* * *

- test system: soybean lipoxygenase (Glycine max)
- Sequence (P08170 whole entry): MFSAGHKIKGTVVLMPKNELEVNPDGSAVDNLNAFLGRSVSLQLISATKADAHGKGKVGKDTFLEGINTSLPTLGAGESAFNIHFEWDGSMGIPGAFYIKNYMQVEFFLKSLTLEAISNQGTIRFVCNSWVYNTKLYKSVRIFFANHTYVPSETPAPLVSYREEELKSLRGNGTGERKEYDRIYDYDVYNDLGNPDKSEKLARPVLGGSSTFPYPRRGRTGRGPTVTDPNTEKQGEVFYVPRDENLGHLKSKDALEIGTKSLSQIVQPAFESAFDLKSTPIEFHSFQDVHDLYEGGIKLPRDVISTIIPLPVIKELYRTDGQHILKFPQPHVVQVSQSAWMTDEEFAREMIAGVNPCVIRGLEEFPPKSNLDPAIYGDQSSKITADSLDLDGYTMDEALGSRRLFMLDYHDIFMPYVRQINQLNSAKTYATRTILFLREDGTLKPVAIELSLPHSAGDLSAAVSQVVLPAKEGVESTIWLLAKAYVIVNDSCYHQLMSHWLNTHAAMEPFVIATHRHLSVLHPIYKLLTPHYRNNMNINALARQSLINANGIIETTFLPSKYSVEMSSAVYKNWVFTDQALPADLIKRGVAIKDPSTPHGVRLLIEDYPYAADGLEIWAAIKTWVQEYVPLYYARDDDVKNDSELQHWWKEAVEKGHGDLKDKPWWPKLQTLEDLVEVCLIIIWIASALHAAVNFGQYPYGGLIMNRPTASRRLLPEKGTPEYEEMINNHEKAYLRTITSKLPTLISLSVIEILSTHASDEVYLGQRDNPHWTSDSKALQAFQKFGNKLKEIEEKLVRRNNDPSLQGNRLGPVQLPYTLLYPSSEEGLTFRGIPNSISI
IC50 vs 80 µM: less than gives Yes; not less than gives No.

compound structure: O=C(O)C(=CC(Br)=Cc1ccccc1)c1ccc(O)cc1
class name: Yes
--
compound structure: CN(C)c1ccc(C=CC=C(C(=O)O)c2ccc(O)cc2)cc1
class name: No
--
compound structure: CC(C)(C)c1cc(C=C(C(=O)O)c2ccc(Br)cc2)c(O)c(C(C)(C)C)c1
class name: Yes
--
compound structure: O=C(O)C(=Cc1ccc(OCc2ccc(Br)cc2)cc1)c1ccc(Br)cc1
class name: Yes
--
compound structure: CC(=Cc1ccccc1)C=C(C(=O)O)c1ccc(Br)cc1
class name: Yes

We now examine a further compound.
Bench note: check whether "CC(C)(C)c1cc(C=C(C(=O)O)c2ccc(O)cc2)cc(C(C)(C)C)c1O" shows IC50 below 80 µM
Yes

* * *

- test method notes: Competition with DMSO for hydroxyl radicals (Fe3+/ascorbic acid system)
- Type: biochemical
- study conditions: hydroxyl radical scavenging
Field: HO•% 100 µM. Provide a value for each of the compounds that follow.
Give bare numbers, in %.

# example entries with known answers
compound structure: CN(C)c1ccc(C=CC=C(C(=O)O)c2ccc(Br)cc2)cc1
HO•% 100 µM [%]: 100
--
compound structure: O=C(O)C(=CC(Br)=Cc1ccccc1)c1ccc(Br)cc1
HO•% 100 µM [%]: 83
--
compound structure: CC(=Cc1ccccc1)C=C(C(=O)O)c1ccc(O)cc1
HO•% 100 µM [%]: 89
--
compound structure: CC(C)(C)c1cc(C=C(C(=O)O)c2ccc(O)cc2)c(O)c(C(C)(C)C)c1
HO•% 100 µM [%]: 100

Report HO•% 100 µM for each item below.
1. O=C(O)C(=Cc1cccc(Oc2ccccc2)c1)c1ccc(Br)cc1
2. CN(C)c1ccc(C=CC=C(C(=O)O)c2ccc(O)cc2)cc1

94
99

* * *

- test method notes: Competition with DMSO for hydroxyl radicals (Fe3+/ascorbic acid system)
- Format: biochemical
- study conditions: hydroxyl radical scavenging
recorded endpoint: HO•% 100 µM (%)
One number for each entry, in %.

compound: O=C(O)C(=CC(Br)=Cc1ccccc1)c1ccc(O)cc1 [Compound 4ii]
numeric result: 96
--
compound: O=C(O)C(=Cc1ccc(OCc2ccc(Br)cc2)cc1)c1ccc(Br)cc1 [Compound 2i]
numeric result: 95
--
compound: CC(C)(C)c1cc(C=C(C(=O)O)c2ccc(O)cc2)cc(C(C)(C)C)c1O [Compound 7ii]
numeric result: 72

Report HO•% 100 µM for each item below.
1. CC(C)(C)c1cc(C=C(C(=O)O)c2ccc(Br)cc2)c(O)c(C(C)(C)C)c1 [Compound 6i]
2. CC(C)(C)c1cc(C=C(C(=O)O)c2ccc(Br)cc2)cc(C(C)(C)C)c1O [Compound 7i]
3. O=C(O)C(=Cc1cccc(Oc2ccccc2)c1)c1ccc(O)cc1 [Compound 1ii]
4. O=C(O)C(=Cc1ccc(OCc2ccc(Br)cc2)cc1)c1ccc(O)cc1 [Compound 2ii]
5. Cc1c(C)c2c(c(C)c1O)CCC(C)(C(=O)O)O2 (stereo not drawn) [Trolox, reference compound]
6. CC(=Cc1ccccc1)C=C(C(=O)O)c1ccc(Br)cc1 [Compound 5i]

1. 100
2. 87
3. 100
4. 99
5. 73
6. 82

* * *

- test method notes: Experimental lipophilicity as RM values by reversed phase TLC (RPTLC)
- Type: physicochemical
- study conditions: methanol/water 77/23 with 0.1% acetic acid, 24 °C, average of at least 5 measurements
- Description: Lipophilicity is a physicochemical property correlated with the biological activity. […] The lipophilicity of the novel cinnamic acids was experimentally measured as RM values using a reverse phase thin layer chromatography (RPTLC) method. […] Bate-Smith and Westall firstly determined lipophilicity as RM values in 1950 [31]. […] Reversed phase TLC (RPTLC) was performed on silica gel plates impregnated with 55% (v/v) liquid paraffin in light petroleum ether. […] Spots were detected under UV light. […]
Field: RM (±SD). Provide a value for each of the compounds that follow.

# example entries with known answers
compound structure: O=C(O)C(=Cc1cccc(Oc2ccccc2)c1)c1ccc(Br)cc1
recorded endpoint: RM (±SD)
result: −0.103 (0.009)
--
compound structure: O=C(O)C(=Cc1cccc(Oc2ccccc2)c1)c1ccc(O)cc1
recorded endpoint: RM (±SD)
result: −0.537 (0.002)
--
compound structure: CN(C)c1ccc(C=CC=C(C(=O)O)c2ccc(O)cc2)cc1
recorded endpoint: RM (±SD)
result: −0.642 (0.032)
--
compound structure: CC(C)(C)c1cc(C=C(C(=O)O)c2ccc(Br)cc2)cc(C(C)(C)C)c1O
recorded endpoint: RM (±SD)
result: 1.151 (0.021)
--
compound structure: O=C(O)C(=Cc1ccc(OCc2ccc(Br)cc2)cc1)c1ccc(Br)cc1
recorded endpoint: RM (±SD)
result: 0.605 (0.016)

Report RM (±SD) for each item below.
1. CC(=Cc1ccccc1)C=C(C(=O)O)c1ccc(Br)cc1
2. CC(C)(C)c1cc(C=C(C(=O)O)c2ccc(O)cc2)cc(C(C)(C)C)c1O
3. O=C(O)C(=CC(Br)=Cc1ccccc1)c1ccc(O)cc1
4. O=C(O)C(=CC(Br)=Cc1ccccc1)c1ccc(Br)cc1
5. CN(C)c1ccc(C=CC=C(C(=O)O)c2ccc(Br)cc2)cc1
6. O=C(O)C(=Cc1ccc(OCc2ccc(Br)cc2)cc1)c1ccc(O)cc1
7. CC(=Cc1ccccc1)C=C(C(=O)O)c1ccc(O)cc1
8. CC(C)(C)c1cc(C=C(C(=O)O)c2ccc(O)cc2)c(O)c(C(C)(C)C)c1

0.683 (0.015)
0.654 (0.016)
0.011 (0.001)
0.423 (0.017)
0.582 (0.037)
0.061 (0.007)
−0.565 (0.003)
0.622 (0.025)

Look up RM (±SD): "CC(C)(C)c1cc(C=C(C(=O)O)c2ccc(Br)cc2)c(O)c(C(C)(C)C)c1"
0.480 (0.035)
